Species on record: Homo sapiens
measurement_notes: Selectivity ratio of IC50 for human 20S constitutive proteasome beta-5 to IC50 for human 20S constitutive proteasome beta-2
# if measured Ratio IC50 < 70: Yes  # else: No

INPUT: Determine if `CC(C)C[C@H](NC(=O)[C@H](CC(C)C)NC(=O)[C@@H](N)Cc1ccccc1)C(=O)N[C@@H](CCCCN)CS(=O)(=O)F` shows Ratio IC50 strictly lower than 70.
OUTPUT: No

INPUT: Follow-up item: `CC(C)C[C@H](NC(=O)[C@H](Cc1ccccc1)N=[N+]=[N-])C(=O)N[C@@H](CC(C)C)C(=O)N[C@@H](CCCCN)CS(=O)(=O)F`
OUTPUT: No

INPUT: Follow-up item: `CC(C)C[C@H](NC(=O)[C@H](CC(C)C)NC(=O)[C@@H](N)Cc1ccccc1)C(=O)N[C@@H](Cc1ccc(CN)cc1)CS(=O)(=O)F`
OUTPUT: No

INPUT: Follow-up item: `CC(C)C[C@H](NC(=O)[C@H](CC(C)C)NC(=O)[C@H](Cc1ccccc1)NC(=O)OC(C)(C)C)C(=O)N[C@@H](CCCNC(=N)N)CS(=O)(=O)F`
OUTPUT: Yes

INPUT: Follow-up item: `CC(=O)N[C@@H](Cc1ccccc1)C(=O)N[C@@H](CC(C)C)C(=O)N[C@@H](CC(C)C)C(=O)N[C@@H](Cc1ccc(N)cc1)CS(=O)(=O)F`
OUTPUT: Yes

INPUT: Follow-up item: `CC(C)C[C@H](NC(=O)[C@H](Cc1ccccc1)N=[N+]=[N-])C(=O)N[C@@H](CC(C)C)C(=O)N[C@@H](Cc1ccc(CN)cc1)CS(=O)(=O)F`
OUTPUT: Yes

INPUT: Follow-up item: `CC(C)C[C@H](NC(=O)[C@H](CC(C)C)NC(=O)[C@@H](N)Cc1ccccc1)C(=O)N[C@@H](CCCNC(=N)N)CS(=O)(=O)F`
OUTPUT: No

---

measurement_notes: Stability in pH 6.5 PBS buffer at 1 mM after 12 hrs by HPLC analysis
Type: physicochemical
condition_label: read-out: Stability
metric_name: remaining at 12 h, 1000 µM (%)
Answer format: numeric, % implied, no suffix.

INPUT: remaining at 12 h, 1000 µM lookup needed for `CC(C)C[C@H](NC(=O)[C@H](CC(C)C)NC(=O)[C@@H](N)Cc1ccccc1)C(=O)N[C@@H](Cc1ccc(CN)cc1)CS(=O)(=O)F` , thanks.
OUTPUT: 75

INPUT: Follow-up item: `CC(=O)N[C@@H](Cc1ccccc1)C(=O)N[C@@H](CC(C)C)C(=O)N[C@@H](CC(C)C)C(=O)N[C@@H](CCCNC(=N)N)CS(=O)(=O)F`
OUTPUT: 75

INPUT: Follow-up item: `CC(C)C[C@H](NC(=O)[C@H](CC(C)C)NC(=O)[C@H](Cc1ccccc1)NC(=O)OCc1ccccc1)C(=O)N[C@@H](CCCNC(=N)N)CS(=O)(=O)F`
OUTPUT: 75

---

Species: Homo sapiens
measurement_notes: Selectivity ratio of IC50 for human 20S immunoproteasome beta-5 to IC50 for human 20S immunoproteasome beta-2
metric_name: Ratio IC50

INPUT: Ratio IC50 lookup needed for `CC(C)C[C@H](NC(=O)[C@H](CC(C)C)NC(=O)[C@H](Cc1ccccc1)NC(=O)OCc1ccccc1)C(=O)N[C@@H](CCCNC(=N)N)CS(=O)(=O)F` , thanks.
OUTPUT: 17

INPUT: Follow-up item: `CC(C)C[C@H](NC(=O)[C@H](CC(C)C)NC(=O)[C@@H](N)Cc1ccccc1)C(=O)N[C@@H](CCCCN)CS(=O)(=O)F`
OUTPUT: > 1000

INPUT: Follow-up item: `CC(C)C[C@H](NC(=O)[C@H](CC(C)C)NC(=O)[C@@H](N)Cc1ccccc1)C(=O)N[C@@H](CCCNC(=N)N)CS(=O)(=O)F`
OUTPUT: > 1000

---

Species on record: Homo sapiens
measurement_notes: Selectivity ratio of IC50 for human 20S constitutive proteasome beta-5 to IC50 for human 20S constitutive proteasome beta-2
For each of the compounds below, state its Ratio IC50.

INPUT: Ratio IC50 lookup needed for `CC(C)C[C@H](NC(=O)OCc1ccccc1)C(=O)N[C@@H](CC(C)C)C(=O)N[C@@H](CC(C)C)C(=O)N[C@@H](CCCNC(=N)N)CS(=O)(=O)F` , thanks.
OUTPUT: 50

INPUT: Follow-up item: `CC(=O)N[C@@H](Cc1ccccc1)C(=O)N[C@@H](CC(C)C)C(=O)N[C@@H](CC(C)C)C(=O)N[C@@H](CCCCN)CS(=O)(=O)F`
OUTPUT: 300

INPUT: Follow-up item: `CC(C)C[C@H](NC(=O)[C@H](CC(C)C)NC(=O)[C@@H](N)Cc1ccccc1)C(=O)N[C@@H](Cc1ccc(N)cc1)CS(=O)(=O)F`
OUTPUT: 4.3

---

For each of the compounds below, state its IC50.
experimental_system: Proteasome subunit beta type-10 (Homo sapiens)
Sequence (P40306 whole entry): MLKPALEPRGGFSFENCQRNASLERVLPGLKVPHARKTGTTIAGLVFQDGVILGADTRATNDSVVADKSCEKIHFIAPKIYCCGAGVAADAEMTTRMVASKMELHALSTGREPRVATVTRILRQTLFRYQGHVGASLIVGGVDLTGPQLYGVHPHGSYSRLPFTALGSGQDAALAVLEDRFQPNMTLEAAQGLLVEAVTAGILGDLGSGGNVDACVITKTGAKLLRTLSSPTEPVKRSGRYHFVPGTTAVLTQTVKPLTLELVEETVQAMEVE
measurement_notes: Inhibition of human 20S immunoproteasome beta-2 using Bz-VGR-AMC as substrate after 60 mins by fluorescence assay
Answer format: numeric, nM implied, no suffix.

INPUT: IC50 lookup needed for `CC(C)C[C@H](NC(=O)[C@H](CC(C)C)NC(=O)[C@@H](N)Cc1ccccc1)C(=O)N[C@@H](CCCCN)CS(=O)(=O)F` , thanks.
OUTPUT: 300

INPUT: Follow-up item: `CC(C)C[C@H](NC(=O)[C@H](CC(C)C)NC(=O)[C@H](Cc1ccccc1)NC(=O)OCc1ccccc1)C(=O)N[C@@H](CCCNC(=N)N)CS(=O)(=O)F`
OUTPUT: 400

INPUT: Follow-up item: `CC(C)C[C@H](NC(=O)[C@H](Cc1ccccc1)N=[N+]=[N-])C(=O)N[C@@H](CC(C)C)C(=O)N[C@H](/C=C/S(C)(=O)=O)Cc1ccc(CN)cc1`
OUTPUT: 27.5

---

For each of the compounds below, state its Ratio IC50.
Species: Homo sapiens
measurement_notes: Selectivity ratio of IC50 for human 20S constitutive proteasome beta-5 to IC50 for human 20S constitutive proteasome beta-2
// no unit, no text: just the number

INPUT: Ratio IC50 lookup needed for `CC(C)C[C@H](NC(=O)[C@H](CC(C)C)NC(=O)[C@H](Cc1ccccc1)NC(=O)OCc1ccccc1)C(=O)N[C@@H](CCCNC(=N)N)CS(=O)(=O)F` , thanks.
OUTPUT: 45

INPUT: Follow-up item: `CC(C)C[C@H](NC(=O)[C@H](Cc1ccccc1)N=[N+]=[N-])C(=O)N[C@@H](CC(C)C)C(=O)N[C@@H](CCCNC(=N)N)CS(=O)(=O)F`
OUTPUT: 110

INPUT: Follow-up item: `CC(=O)N[C@@H](Cc1ccccc1)C(=O)N[C@@H](CC(C)C)C(=O)N[C@@H](CC(C)C)C(=O)N[C@@H](Cc1ccc(CN)cc1)CS(=O)(=O)F`
OUTPUT: 150
